Read-out: serum amyloid A (SAA), SAA1 (gene 6288)
assay-method-text: BSK_CASM3C_SAA: BioMAP Diversity Plus: CASM3C Assay for serum amyloid A (SAA) Biomarker Activity (AID 2283049);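 also: SAA protein level quantified by ELISA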
condition-parameters: primary human coronary artery smooth muscle cells; actives raise or lower the signal
Activity calls are given as the source filed them. The calls were made as follows: active = hit-call score of the fitted dose curve at least 0.9, where 1 is the maximum; inactive = score below 0.9.
Thanks in advance; please answer with one of these: yes = active, no = inactive

The following molecules have reported results that may help.
CCOC(=O)C=Cc1ccccc1
no
CCC(=O)OCC=Cc1ccccc1
no
C=C(F)C(=O)OC(C(F)(F)F)C(F)(F)F
no

Which outcome was assigned to O=C(c1ccc(OCCN2CCCCC2)cc1)c1c(-c2ccc(O)cc2)sc2cc(O)ccc12 in this test? no

Which outcome was assigned to COC(=O)c1ccc(C(=O)OC)cc1 in this test? no

Which outcome was assigned to C#C[C@]1(O)CC[C@H]2[C@@H]3CCc4cc(O)ccc4[C@H]3CC[C@@]21C in this test? yes

Which outcome was assigned to CC1=CC(C)C(C=O)C(C)C1 (configuration not stated) (tested in a mixture with another compound) in this test? no

Which outcome was assigned to O=C(O)C(F)(F)OC(F)(F)C(F)(F)OC(F)(F)C(F)(F)C(F)(F)C(F)(F)F in this test? no

Which outcome was assigned to CC(=O)OC(C)(C)C1CC=C(C)CC1 (configuration not stated) in this test? no

Which outcome was assigned to CCCCCCCCCC(=O)OCC in this test? yes

Which outcome was assigned to CC1(C)[C@H](C=C(Cl)Cl)[C@H]1C(=O)OCc1cccc(Oc2ccccc2)c1 in this test? no

Which outcome was assigned to CC(=O)c1ccc(C)cc1 in this test? no

----------
Read-out: Monocyte Chemoattractant Protein-1 (MCP1), CCL2 (gene 6347)
assay-method-text: BSK_SAg_MCP1: BioMAP Diversity Plus: SAg Assay for Monocyte Chemoattractant Protein-1 (MCP1) Biomarker Activity (AID 2283090)
condition-parameters: primary human HUVEC with PBMC; actives raise or lower the signal
The source made the active and inactive calls. The calls were made as follows: active = hit-call score of the fitted dose curve at least 0.9, where 1 is the maximum; inactive = score below 0.9.
Thanks in advance; please answer with one of these: active, inactive

CC1=CC(C)C(C=O)C(C)C1 (configuration not stated) (tested in a mixture with another compound)
inactive
NC(=O)c1c(Cl)cccc1Cl
inactive
CC(=O)c1ccc(C)cc1
inactive

Which outcome was assigned to CCOC(=O)CCCCCCCCC(=O)OCC in this test? inactive

Which outcome was assigned to CC(C)(CO)CO in this test? inactive

Which outcome was assigned to C=C1CC/C=C(\C)CC[C@@H]2[C@@H]1CC2(C)C in this test? active

Which outcome was assigned to C#C[C@]1(O)CC[C@H]2[C@@H]3CCc4cc(O)ccc4[C@H]3CC[C@@]21C in this test? active

----------
Read-out: sulfotransferase 2A1 (SULT2A1), SULT2A1 (gene 6822)
assay-method-text: LTEA_HepaRG_SULT2A1: Life Technologies and Expression Analysis (LTEA) Assay for sulfotransferase 2A1 (SULT2A1) using HepaRG (AID 2283531)
condition-parameters: mRNA level, 48 h; actives raise or lower the signal
Activity calls are given as the source filed them. Rule for the calls: active = hit-call score of the fitted dose curve at least 0.9, where 1 is the maximum; inactive = score below 0.9.
property: AC50

C[C@]12CC[C@@H]3c4ccc(O)cc4CC[C@H]3[C@@H]1CC[C@@H]2O
50 µM (active)
O=C(c1ccc(OCCN2CCCCC2)cc1)c1c(-c2ccc(O)cc2)sc2cc(O)ccc12
50 µM (active)
C#C[C@]1(O)CC[C@H]2[C@@H]3CCc4cc(O)ccc4[C@H]3CC[C@@]21C
inactive
COC(=O)c1ccc(C(=O)OC)cc1
inactive
